Would you kindly list viability, T/C for each of these molecules?
Test system: 883617-216-R-J1-PDC complex spheroids, growth, % test/control
RUN_DESCRIPTION: Anticancer human tumor 883617-216-R-J1-PDC patient-derived bladder carcinoma cell line growth inhibition [AhR]
TEST_SETTINGS: second compound 10 µM; first compound 3 µM; stronger effect = lower value

Lookup: viability, T/C / 883617-216-R-J1-PDC complex spheroids, growth, % test/control / O=C(C=Cn1cnc(-c2cc(C(F)(F)F)cc(C(F)(F)F)c2)n1)NNc1cnccn1 + Cc1ccccc1N=Nc1ccc(NC(=O)c2ccnn2C)c(C)c1
39%

Hello, I am looking for reported viability, T/C with 883617-216-R-J1-PDC complex spheroids, growth, % test/control for CCN(c1cc(-c2ccc(CN3CCOCC3)cc2)cc(C(=O)NCc2c(C)cc(C)[nH]c2=O)c1C)C1CCOCC1 + Cc1cncc(-c2nc(NCCc3c[nH]c4ccccc34)c3ncn(C(C)C)c3n2)c1 . Could you help?
15.5%

Requested read-out viability, T/C, target or system 883617-216-R-J1-PDC complex spheroids, growth, % test/control, entry O=C(C=Cn1cnc(-c2cc(C(F)(F)F)cc(C(F)(F)F)c2)n1)NNc1cnccn1 + CC(CO)NC(=O)c1cc(-c2ccc(Cl)cc2)nn(-c2cnn(C)c2)c1=O
24.9%

Write down the reported viability, T/C of CCN(c1cc(-c2ccc(CN3CCOCC3)cc2)cc(C(=O)NCc2c(C)cc(C)[nH]c2=O)c1C)C1CCOCC1 + Cc1ccccc1N=Nc1ccc(NC(=O)c2ccnn2C)c(C)c1 , test system: 883617-216-R-J1-PDC complex spheroids, growth, % test/control.
81.4%

Form field - read-out: viability, T/C; system: 883617-216-R-J1-PDC complex spheroids, growth, % test/control; submitted item: CCN(c1cc(-c2ccc(CN3CCOCC3)cc2)cc(C(=O)NCc2c(C)cc(C)[nH]c2=O)c1C)C1CCOCC1 + CC(CO)NC(=O)c1cc(-c2ccc(Cl)cc2)nn(-c2cnn(C)c2)c1=O
45%

Quick check: viability, T/C on 883617-216-R-J1-PDC complex spheroids, growth, % test/control, item O=C(C=Cn1cnc(-c2cc(C(F)(F)F)cc(C(F)(F)F)c2)n1)NNc1cnccn1 + Cc1cncc(-c2nc(NCCc3c[nH]c4ccccc34)c3ncn(C(C)C)c3n2)c1 ?
44.2%

---

System: 883617-216-R-J1-PDC complex spheroids, growth, % test/control
RUN_DESCRIPTION: Anticancer human tumor 883617-216-R-J1-PDC cell line growth inhibition [AhR];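 note: exposure lasted 7 days after dosing on day 3 of spheroid growth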
TEST_SETTINGS: second compound 1 µM; first compound 3 µM; stronger effect = lower value
Strictly below 90% in viability, T/C: criterion met. Otherwise: criterion not met.

Does the reported viability, T/C of the following compound sit strictly below 90%? CCN(c1cc(-c2ccc(CN3CCOCC3)cc2)cc(C(=O)NCc2c(C)cc(C)[nH]c2=O)c1C)C1CCOCC1 + CC(CO)NC(=O)c1cc(-c2ccc(Cl)cc2)nn(-c2cnn(C)c2)c1=O
criterion met

Record O=C(C=Cn1cnc(-c2cc(C(F)(F)F)cc(C(F)(F)F)c2)n1)NNc1cnccn1 + Cc1ccccc1N=Nc1ccc(NC(=O)c2ccnn2C)c(C)c1 : is its viability, T/C strictly below 90%?
criterion met

Criterion: viability, T/C strictly below 90%. Is it met by CCN(c1cc(-c2ccc(CN3CCOCC3)cc2)cc(C(=O)NCc2c(C)cc(C)[nH]c2=O)c1C)C1CCOCC1 + Cc1cncc(-c2nc(NCCc3c[nH]c4ccccc34)c3ncn(C(C)C)c3n2)c1 ?
criterion not met

Lab note: confirm whether the reported viability, T/C for this compound is below 90%, equality not counting. compound: O=C(C=Cn1cnc(-c2cc(C(F)(F)F)cc(C(F)(F)F)c2)n1)NNc1cnccn1 + CC(CO)NC(=O)c1cc(-c2ccc(Cl)cc2)nn(-c2cnn(C)c2)c1=O
criterion met

Input O=C(C=Cn1cnc(-c2cc(C(F)(F)F)cc(C(F)(F)F)c2)n1)NNc1cnccn1 + Cc1cncc(-c2nc(NCCc3c[nH]c4ccccc34)c3ncn(C(C)C)c3n2)c1 ; condition: viability, T/C strictly below 90%. Does it hold?
criterion met

Threshold test, viability, T/C < 90%: CCN(c1cc(-c2ccc(CN3CCOCC3)cc2)cc(C(=O)NCc2c(C)cc(C)[nH]c2=O)c1C)C1CCOCC1 + Cc1ccccc1N=Nc1ccc(NC(=O)c2ccnn2C)c(C)c1
criterion not met

---

Can you tell me IC50 for the items I'm about to list?
Test system: 883617-216-R-J1-PDC complex spheroids, growth, % test/control
RUN_DESCRIPTION: Anticancer human tumor 883617-216-R-J1-PDC cell line growth inhibition [AhR];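 note: exposure lasted 7 days after dosing on day 3 of spheroid growth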
TEST_SETTINGS: curve of first compound; second compound 0.1 µM

# get_value(readout='IC50', item= CCN(c1cc(-c2ccc(CN3CCOCC3)cc2)cc(C(=O)NCc2c(C)cc(C)[nH]c2=O)c1C)C1CCOCC1 + Cc1ccccc1N=Nc1ccc(NC(=O)c2ccnn2C)c(C)c1 )
> 3 µM

Value lookup for IC50; key = CC1(C)CCC(CN2CCN(c3ccc(C(=O)NS(=O)(=O)c4ccc(NCC5CCOCC5)c([N+](=O)[O-])c4)c(Oc4cnc5[nH]ccc5c4)c3)CC2)=C(c2ccc(Cl)cc2)C1 + CC(CO)NC(=O)c1cc(-c2ccc(Cl)cc2)nn(-c2cnn(C)c2)c1=O
> 10 µM

Given the compound O=C(c1cc(Cc2n[nH]c(=O)c3ccccc23)ccc1F)N1CCN(C(=O)C2CC2)CC1 + CC(CO)NC(=O)c1cc(-c2ccc(Cl)cc2)nn(-c2cnn(C)c2)c1=O , what is its reported IC50?
> 10 µM

Return reported IC50; argument: O=C(C=Cc1cccc(S(=O)(=O)Nc2ccccc2)c1)NO + Cc1ccccc1N=Nc1ccc(NC(=O)c2ccnn2C)c(C)c1
1.57 µM

State the recorded IC50 for this entry: CC[C@@]1(O)C(=O)OCc2c1cc1n(c2=O)Cc2cc3c(CN(C)C)c(O)ccc3nc2-1 + Cc1cncc(-c2nc(NCCc3c[nH]c4ccccc34)c3ncn(C(C)C)c3n2)c1
> 0.1 µM

---

System: 883617-216-R-J1-PDC complex spheroids, growth, % test/control
RUN_DESCRIPTION: Anticancer human tumor 883617-216-R-J1-PDC cell line growth inhibition [AhR];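 note: exposure lasted 7 days after dosing on day 3 of spheroid growth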
TEST_SETTINGS: second compound 1 µM; first compound 0.316 µM; stronger effect = lower value
Source text: Multicellular complex tumor spheroid response to aryl hydrocarbon receptor antagonists in combination with a variety of drugs and investigational agents in selected tumor cell lines […] Compounds. […] If the clinical Cmax for an agent had not been determined, the highest concentration tested was 10 microM (Table 1). […]
I'd appreciate it if you could supply viability, T/C values for the items below.

Would you kindly share the measured viability, T/C for CC1COCCN1c1cc(C2(S(C)(=N)=O)CC2)nc(-c2ccnc3[nH]ccc23)n1 (configuration not stated) + CC(CO)NC(=O)c1cc(-c2ccc(Cl)cc2)nn(-c2cnn(C)c2)c1=O ?
152%

GET /values?readout=viability, T/C&item= Nc1ccccc1NC(=O)c1ccc(CNC(=O)OCc2cccnc2)cc1 + CC(CO)NC(=O)c1cc(-c2ccc(Cl)cc2)nn(-c2cnn(C)c2)c1=O
110%

Need viability, T/C of Nc1ccn(C2OC(CO)C(O)C2(F)F)c(=O)n1 (configuration not stated) + CC(CO)NC(=O)c1cc(-c2ccc(Cl)cc2)nn(-c2cnn(C)c2)c1=O , thanks.
113%

Looking for the measured viability, T/C of CC1(C)CCC(CN2CCN(c3ccc(C(=O)NS(=O)(=O)c4ccc(NCC5CCOCC5)c([N+](=O)[O-])c4)c(Oc4cnc5[nH]ccc5c4)c3)CC2)=C(c2ccc(Cl)cc2)C1 + Cc1cncc(-c2nc(NCCc3c[nH]c4ccccc34)c3ncn(C(C)C)c3n2)c1 , can you help?
87.7%

Please report the recorded viability, T/C for COc1cccc2c1C(=O)c1c(O)c3c(c(O)c1C2=O)CC(O)(C(=O)CO)CC3OC1CC(N)C(O)C(C)O1 (configuration not stated) + CC(CO)NC(=O)c1cc(-c2ccc(Cl)cc2)nn(-c2cnn(C)c2)c1=O .
82.1%

GET /values?readout=viability, T/C&item= CC1COCCN1c1cc(-c2ccnn2C)c2ccnc(-c3ccn[nH]3)c2n1 (configuration not stated) + Cc1cncc(-c2nc(NCCc3c[nH]c4ccccc34)c3ncn(C(C)C)c3n2)c1
70.3%

Dear colleague, I am looking for the recorded viability, T/C of the following compound: CC1COCCN1c1cc(-c2ccnn2C)c2ccnc(-c3ccn[nH]3)c2n1 (configuration not stated) + Cc1ccccc1N=Nc1ccc(NC(=O)c2ccnn2C)c(C)c1
56%

Quick check: viability, T/C of O=C(C=Cc1cccc(S(=O)(=O)Nc2ccccc2)c1)NO + Cc1ccccc1N=Nc1ccc(NC(=O)c2ccnn2C)c(C)c1 ?
69.1%

# lookup: viability, T/C of COc1cccc2c1C(=O)c1c(O)c3c(c(O)c1C2=O)CC(O)(C(=O)CO)CC3OC1CC(N)C(O)C(C)O1 (configuration not stated) + Cc1cncc(-c2nc(NCCc3c[nH]c4ccccc34)c3ncn(C(C)C)c3n2)c1
62.1%

Give the measured viability, T/C of NS(=O)(=O)OCC1CC(n2ccc3c(NC4CCc5ccccc54)ncnc32)CC1O (configuration not stated) + Cc1ccccc1N=Nc1ccc(NC(=O)c2ccnn2C)c(C)c1 .
256%

Using the record for Nc1ccccc1NC(=O)c1ccc(CNC(=O)OCc2cccnc2)cc1 + Cc1cncc(-c2nc(NCCc3c[nH]c4ccccc34)c3ncn(C(C)C)c3n2)c1 , report its viability, T/C.
77.8%

Give the measured viability, T/C of CC1COCCN1c1cc(-c2ccnn2C)c2ccnc(-c3ccn[nH]3)c2n1 (configuration not stated) + CC(CO)NC(=O)c1cc(-c2ccc(Cl)cc2)nn(-c2cnn(C)c2)c1=O .
53.5%
